ASSAY_SUMMARY: physchem
STATED_CONDITIONS: 25 °C, fassif, thermodynamic from solid
Values of solubility greater than or equal to 500 µg/mL map to 1 (yes); values below map to 0 (no).

{"CHEMICAL_STRUCTURE": "CC(C)(C#Cc1ccc(-c2ccc(Cl)c3c(N(C(=O)NCCP(=O)(O)O)S(C)(=O)=O)nn(CC(F)(F)F)c23)c([C@H](Cc2cc(F)cc(F)c2)NC(=O)Cn2nc(C(F)(F)F)c3c2C(F)(F)[C@@H]2C[C@H]32)n1)S(C)(=O)=O", "CLASSIFICATION": "0 (no)"}
{"CHEMICAL_STRUCTURE": "CC(C)(C#Cc1ccc(-c2ccc(Cl)c3c(N(C(=O)OCCN(CCC(=O)O)C(=O)OCOP(=O)(O)O)S(C)(=O)=O)nn(CC(F)(F)F)c23)c([C@H](Cc2cc(F)cc(F)c2)NC(=O)Cn2nc(C(F)(F)F)c3c2C(F)(F)[C@@H]2C[C@H]32)n1)S(C)(=O)=O", "CLASSIFICATION": "1 (yes)"}
{"CHEMICAL_STRUCTURE": "CC(C)(C#Cc1ccc(-c2ccc(Cl)c3c(N(C(=O)O[C@H](CNC(=O)OCOP(=O)(O)O)CC(=O)O)S(C)(=O)=O)nn(CC(F)(F)F)c23)c([C@H](Cc2cc(F)cc(F)c2)NC(=O)Cn2nc(C(F)(F)F)c3c2C(F)(F)[C@@H]2C[C@H]32)n1)S(C)(=O)=O", "CLASSIFICATION": "1 (yes)"}
{"CHEMICAL_STRUCTURE": "CN(Cc1ccccc1OP(=O)(O)O)C(=O)N(c1nn(CC(F)(F)F)c2c(-c3ccc(C#CC(C)(C)S(C)(=O)=O)nc3[C@H](Cc3cc(F)cc(F)c3)NC(=O)Cn3nc(C(F)(F)F)c4c3C(F)(F)[C@@H]3C[C@H]43)ccc(Cl)c12)S(C)(=O)=O", "CLASSIFICATION": "1 (yes)"}
{"CHEMICAL_STRUCTURE": "CN(CCOC(=O)N(c1nn(CC(F)(F)F)c2c(-c3ccc(C#CC(C)(C)S(C)(=O)=O)nc3[C@H](Cc3cc(F)cc(F)c3)NC(=O)Cn3nc(C(F)(F)F)c4c3C(F)(F)[C@@H]3C[C@H]43)ccc(Cl)c12)S(C)(=O)=O)C(=O)OCOP(=O)(O)O", "CLASSIFICATION": "0 (no)"}
{"CHEMICAL_STRUCTURE": "C[C@@H](C(=O)O)N(CCOC(=O)N(c1nn(CC(F)(F)F)c2c(-c3ccc(C#CC(C)(C)S(C)(=O)=O)nc3[C@H](Cc3cc(F)cc(F)c3)NC(=O)Cn3nc(C(F)(F)F)c4c3C(F)(F)[C@@H]3C[C@H]43)ccc(Cl)c12)S(C)(=O)=O)C(=O)OCOP(=O)(O)O", "CLASSIFICATION": "1 (yes)"}

###

This listing pairs compounds with measured pH 7 solubility.
STATED_CONDITIONS: 1×PBS buffer (pH 7.4), 1.0% DMSO, 24-hour incubation at ambient temperature, maximum theoretical 100 μM; second value of the cell
ENDPOINT: pH 7 solubility (μM)

{"COMPOUND": "CC(C)(C#Cc1ccc(-c2ccc(Cl)c3c(N(C(=O)OC[C@H](CC(=O)O)NC(=O)C(=O)O)S(C)(=O)=O)nn(CC(F)(F)F)c23)c([C@H](Cc2cc(F)cc(F)c2)NC(=O)Cn2nc(C(F)(F)F)c3c2C(F)(F)[C@@H]2C[C@H]32)n1)S(C)(=O)=O [Compound 131]", "READOUT_NUMBER": 73}
{"COMPOUND": "CC(C)(C#Cc1ccc(-c2ccc(Cl)c3c(N(C(=O)NCC(=O)O)S(C)(=O)=O)nn(CC(F)(F)F)c23)c([C@H](Cc2cc(F)cc(F)c2)NC(=O)Cn2nc(C(F)(F)F)c3c2C(F)(F)[C@@H]2C[C@H]32)n1)S(C)(=O)=O [Compound 72]", "READOUT_NUMBER": 9}
{"COMPOUND": "CC(C)(C#Cc1ccc(-c2ccc(Cl)c3c(N(C(=O)NC(COC(=O)C(=O)O)COC(=O)C(=O)O)S(C)(=O)=O)nn(CC(F)(F)F)c23)c([C@H](Cc2cc(F)cc(F)c2)NC(=O)Cn2nc(C(F)(F)F)c3c2C(F)(F)[C@@H]2C[C@H]32)n1)S(C)(=O)=O [Compound 37]", "READOUT_NUMBER": 18}
{"COMPOUND": "CN(C(=O)N(c1nn(CC(F)(F)F)c2c(-c3ccc(C#CC(C)(C)S(C)(=O)=O)nc3[C@H](Cc3cc(F)cc(F)c3)NC(=O)Cn3nc(C(F)(F)F)c4c3C(F)(F)[C@@H]3C[C@H]43)ccc(Cl)c12)S(C)(=O)=O)C(C)(C)C(=O)OCOP(=O)(O)O [Compound 85]", "READOUT_NUMBER": 65}
